- ASSAY_TARGET: human SRIF receptor type 3 (Homo sapiens)
- Construct: expressed in transfected cells; host or cells: CHO-K1 cells (membranes)
- Sequence (P32745 whole entry): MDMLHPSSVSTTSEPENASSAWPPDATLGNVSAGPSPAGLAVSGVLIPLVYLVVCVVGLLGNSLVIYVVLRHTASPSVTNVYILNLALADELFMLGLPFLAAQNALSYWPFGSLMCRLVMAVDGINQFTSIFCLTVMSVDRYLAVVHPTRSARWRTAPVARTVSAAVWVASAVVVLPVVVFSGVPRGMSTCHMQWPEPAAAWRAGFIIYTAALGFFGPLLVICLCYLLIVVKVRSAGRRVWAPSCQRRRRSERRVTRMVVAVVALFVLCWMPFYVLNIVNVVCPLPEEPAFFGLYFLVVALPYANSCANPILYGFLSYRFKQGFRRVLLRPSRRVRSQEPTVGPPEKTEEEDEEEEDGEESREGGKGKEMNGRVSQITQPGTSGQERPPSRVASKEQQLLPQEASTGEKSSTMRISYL
- ASSAY_NAME: Radioligand binding assay, CHO-K1 membranes, 125I-Tyr11-SRIF
- ASSAY_CONTEXT: CHO-K1 cell membranes, 0.05 nM 125I-Tyr11-SRIF
- Procedure: For this study, cell membranes were obtained from homogenates of CHO-K1 cells (Chinese hamster ovary cells) ectopically expressing one of the five known somatostatin receptor subtypes (the cells were transfected with cDNA encoding a somatostatin receptor subtype, according to standard methods (see, e.g., Ausubel et al., Current Protocols in Molecular Biology, John Wiley & Sons, New York, N.Y., 1994)). […] The final assay volume was 0.3 ml. […]
pKd: −log10 of the molar value. Positions of bridges follow the written chain, without caps; N, C: chain ends. Non-standard residues stand in square brackets, D forms with d. Residues, ends and D or L forms follow the SMILES beside them. Dab = NCC[C@H](N)C(=O)O
Some compounds, each annotated with its measured pKd.
MEASURE_NAME: pKd

compound="C[C@@H](O)[C@H](NC(=O)[C@@H]1CSSC[C@H](NC(=O)[C@H](CCCCN)NC(=O)[C@H](Cc2ccc(O)cc2)NC(=O)[C@H](CCCCN)NC(=O)[C@H](Cc2ccc(O)cc2)NC(=O)[C@H](N)CCCCN)C(=O)N[C@@H](Cc2ccccc2)C(=O)N[C@H](Cc2c[nH]c3ccccc23)C(=O)N[C@@H](CCCCN)C(=O)N[C@@H]([C@@H](C)O)C(=O)N1)C(N)=O [JF-05-59] (H-[dK]YKYKCF[dW]KTCT-NH2; disulfide 6-11)" assay_target="human SRIF receptor type 3 (Homo sapiens)" measure_name=pKd reported=8.19
compound="C[C@@H](O)[C@H](NC(=O)[C@@H]1CSSC[C@H](NC(=O)[C@H](CCN)NC(=O)[C@H](Cc2ccc(O)cc2)NC(=O)[C@H](CCN)NC(=O)[C@H](Cc2ccc(O)cc2)NC(=O)[C@@H](N)CCN)C(=O)N[C@@H](Cc2ccccc2)C(=O)N[C@H](Cc2c[nH]c3ccccc23)C(=O)N[C@@H](CCCCN)C(=O)N[C@@H]([C@@H](C)O)C(=O)N1)C(N)=O [JF-06-45] (H-[Dab]Y[Dab]Y[Dab]CF[dW]KTCT-NH2; disulfide 6-11)" assay_target="human SRIF receptor type 3 (Homo sapiens)" measure_name=pKd reported=7.64
compound="C[C@@H](O)[C@H](NC(=O)[C@@H]1CSSC[C@H](NC(=O)[C@@H](CCCCN)NC(=O)[C@@H](Cc2ccc(O)cc2)NC(=O)[C@@H](CCCCN)NC(=O)[C@@H](Cc2ccc(O)cc2)NC(=O)[C@H](N)CCCCN)C(=O)N[C@@H](Cc2ccccc2)C(=O)N[C@H](Cc2c[nH]c3ccccc23)C(=O)N[C@@H](CCCCN)C(=O)N[C@@H]([C@@H](C)O)C(=O)N1)C(N)=O [JF-06-44] (H-[dK][dY][dK][dY][dK]CF[dW]KTCT-NH2; disulfide 6-11)" assay_target="human SRIF receptor type 3 (Homo sapiens)" measure_name=pKd reported=9.04
compound="C[C@@H](O)[C@H](NC(=O)[C@@H]1CSSC[C@H](NC(=O)[C@H](CCCCN)NC(=O)[C@H](Cc2ccc(O)cc2)NC(=O)[C@@H](CCCCN)NC(=O)[C@@H](Cc2ccc(O)cc2)NC(=O)[C@H](CCCCN)NC(=O)[C@H](Cc2ccc(O)cc2)NC(=O)[C@H](N)CCCCN)C(=O)N[C@@H](Cc2ccccc2)C(=O)N[C@H](Cc2c[nH]c3ccccc23)C(=O)N[C@@H](CCCCN)C(=O)N[C@@H]([C@@H](C)O)C(=O)N1)C(N)=O [JF-05-85] (H-[dK]YK[dY][dK]YKCF[dW]KTCT-NH2; disulfide 8-13)" assay_target="human SRIF receptor type 3 (Homo sapiens)" measure_name=pKd reported=7.82

Data origin, for the record: patent US6465613B1
